- Test system: HOP-92
- method.summary: NCI tumour cell line growth inhibition, 48 h
Activity calls are given as the source filed them. No stated cut-off is given here; in the data, active = GI50 up to about 1.1 µM and inactive = higher.
readout.label: GI50

Known GI50 results, listed for orientation:
{"columns": ["compound", "experimental.value"],
 "data": [
  ["CCCCCCCCCC[C@@H](O)[C@H]1CC[C@H]([C@H]2CC[C@H]([C@H](O)CCCCCCCCCC[C@@H]3CC(CC(C)=O)C(=O)O3)O2)O1 (some centres undefined)", "> 50 µM (inactive)"],
  ["CC(C)(C)OC(=O)NC1CCCC1C(=O)C1=CCCC1 (centres undefined)", "> 100 µM (inactive)"],
  ["CCCNC(=S)N/N=C1\\C(=O)Nc2ccccc21", "> 100 µM (inactive)"],
  ["COc1cccc2c1C(=O)c1c(O)c3c(c(O)c1C2=O)C[C@@](O)(C(C)=O)C[C@@H]3OC1CC([N+]([O-])(Cc2ccccc2)Cc2ccccc2)C(O)C(C)O1 (some centres undefined)", "1.52 µM (inactive)"],
  ["N[C@@H](Cc1ccccc1)C(=O)N1CCC[C@@H]1P(=O)(Oc1ccccc1)Oc1ccccc1", "> 100 µM (inactive)"],
  ["CC1(C)O[C@@H]2[C@@H](COC(C)(C)O[C@H]2C2SCCCS2)O1", "92.7 µM (inactive)"],
  ["CC[C@]1(Cc2ccc(OC)c(OC)c2)C=[N+]([O-])O[C@H](OC2CCCC2(c2ccccc2)c2ccccc2)[C@@H]1OC(=O)c1ccccc1 (some centres undefined)", "3.02 µM (inactive)"],
  ["O=C(O)c1nnsc1-c1csnn1", "> 100 µM (inactive)"]
]}

Continue with the compound presented below.
QUERY: Can you look up the measured GI50 of O=C(c1cccs1)N1CCN(C(=O)c2cccs2)C1=S for me?
RESULT: 7.19 µM (inactive)

====

- Test system: U-251
- method.summary: NCI tumour cell line growth inhibition, 48 h
The source made the active and inactive calls. No stated cut-off is given here; in the data, active = GI50 up to about 1.1 µM and inactive = higher.
Your reply should match one of these outcome classes. label 1 = active, label 0 = inactive

Previously resolved entries follow.
{"columns": ["compound", "label"],
 "data": [
  ["[N-]=[N+]=Nc1ccccc1Oc1ccccc1", "label 0"],
  ["CN(O)C(=O)c1ccccc1", "label 0"],
  ["CC(=O)c1ccc2c(c1)CC1(C2)Cc2cc3c(cc2C1)C(=O)CC3 (configuration not stated)", "label 0"],
  ["CCOC(=O)C(=Cc1ccccc1Br)C(=O)OCC", "label 0"],
  ["C=CCCC(CCC=C)(C(=O)O)C(=O)O", "label 0"],
  ["O=C1NC(N2CCCCC2)=N/C1=C\\c1ccco1", "label 0"]
]}

QUERY: Field: outcome | Entry: N#CC(c1ccccc1)(c1ccccc1)[C@@H](c1ccccc1)[C@H](Cc1ccccc1)NS(=O)(=O)c1ccccc1
RESULT: label 0

QUERY: Field: outcome | Entry: CCCCCC1=C/C(=C\c2[nH]c(-c3ccc[nH]3)cc2OC)N=C1C
RESULT: label 1

QUERY: Field: outcome | Entry: C=C[C@@]1(O)CCCC2=C(C(=O)OCC)CC[C@]21C
RESULT: label 0

QUERY: Field: outcome | Entry: O=C(O)C(F)(F)C(F)(F)C(F)(F)C(F)(F)C(=O)O
RESULT: label 0

QUERY: Field: outcome | Entry: C=C1CCC([N+](=O)[O-])[C@](C)(N=O)CC[C@@H]2C1CC2(C)C (some centres not stated)
RESULT: label 0

QUERY: Field: outcome | Entry: O=S1(=O)C(c2ccccc2)=C(O)c2ccccc21
RESULT: label 0

====

Below, each entry is listed with its recorded GI50.
- Test system: UO-31
- method.summary: NCI tumour cell line growth inhibition, 48 h
Active and inactive are the calls of the source. No stated cut-off is given here; in the data, active = GI50 up to about 1.1 µM and inactive = higher.

{"columns": ["molecule", "GI50"],
 "data": [
  ["CC(C)c1cccc(=O)c(O)c1", "10.5 µM (inactive)"],
  ["Cn1c(Nc2ccccc2)c(/C=N\\c2ccccc2)c(=O)n(C)c1=O", "54.2 µM (inactive)"]
]}

QUERY: Can you look up the measured GI50 of Cc1cc(C)c(C2[C@H]3C(=O)N(c4ccc(Cc5ccc(N6C(=O)[C@@H]7ON(c8ccccc8)C(c8c(C)cc(C)cc8C)[C@@H]7C6=O)cc5)cc4)C(=O)[C@H]3ON2c2ccccc2)c(C)c1 (stereo partly drawn) for me?
RESULT: > 100 µM (inactive)

QUERY: Can you look up the measured GI50 of Nc1[nH]c(Nc2ccc(Cl)c(Cl)c2)nc2ncnc1-2 for me?
RESULT: 8.73 µM (inactive)

QUERY: Can you look up the measured GI50 of O=C1NC2C(CCO)CC=C[C@H]2c2cc3c(cc21)OCO3 (stereo partly drawn) for me?
RESULT: > 100 µM (inactive)

QUERY: Can you look up the measured GI50 of COc1cc2c(cc1OC)C1C[C@]3(CCN1CC2)C(=O)N(c1ccccc1)C(=O)N3C(C)=O (stereo partly drawn) for me?
RESULT: > 200 µM (inactive)

QUERY: Can you look up the measured GI50 of CC[N+]1(C)CCC(O)(c2ccc(OC)cc2)C(C(=O)c2ccc(OC)cc2)C1 (stereo not drawn) for me?
RESULT: 18.7 µM (inactive)

QUERY: Can you look up the measured GI50 of O=C1c2ccccc2C(=O)N1CCCOCc1cnc(O)nc1O for me?
RESULT: > 100 µM (inactive)

QUERY: Can you look up the measured GI50 of Cc1ccc(S(=O)(=O)OC2CC(C(C)(C)C)CCC2c2ccccc2)cc1 (stereo not drawn) for me?
RESULT: > 100 µM (inactive)

QUERY: Can you look up the measured GI50 of CCC(O)CCCCCCCCCCCCCCC(=O)O (stereo not drawn) for me?
RESULT: > 100 µM (inactive)

QUERY: Can you look up the measured GI50 of COC(=O)c1cc(-c2ccc(OC)c(OC)c2)oc1-c1ccc(OC)c(OC)c1 for me?
RESULT: 35.6 µM (inactive)

QUERY: Can you look up the measured GI50 of Cn1c2c(c3ccccc31)CCN1C(=O)CN(C(=O)C3CCCCC3)CC21 (stereo not drawn) for me?
RESULT: > 100 µM (inactive)

QUERY: Can you look up the measured GI50 of Cc1cc(NS(=O)(=O)c2ccc(NC(=O)c3cccc4c(Nc5ccc(S(=O)(=O)Nc6cc(C)on6)cc5)c5ccc(Cl)cc5nc34)cc2)no1 for me?
RESULT: 25.3 µM (inactive)

====

Below, each entry is listed with its recorded GI50.
- System: KM12
- method.summary: NCI tumour cell line growth inhibition, 48 h
Calls of active or inactive are those of the source. Rule as the data show it: active = GI50 up to about 1.1 µM and inactive = higher.

{"columns": ["compound", "readout.label", "experimental.value"],
 "data": [
  ["Cc1ccc2c(ccc3[nH]cc(CNc4ccc(NS(C)(=O)=O)cc4)c32)n1", "GI50", "18.3 µM (inactive)"],
  ["O=S1(=O)C(c2ccccc2)=C(O)c2ccccc21", "GI50", "> 100 µM (inactive)"],
  ["CSc1ccc(-c2cn3ccsc3n2)c(O)c1", "GI50", "> 56.5 µM (inactive)"],
  ["OCCN1CCN(CC/C=C2/c3ccccc3Sc3ccc(Cl)cc32)CC1", "GI50", "9.57 µM (inactive)"],
  ["C1=Nc2ccccc2Cn2nncc21", "GI50", "47.1 µM (inactive)"],
  ["CCOC(=O)[C@@]1(C(C)=O)CC(C)=C(C)C[S@@+]1[O-]", "GI50", "> 100 µM (inactive)"]
]}

QUERY: Can you look up the measured GI50 of CN(C)/N=N/c1nc2c(c(=O)n(C)c(=O)n2C)n1CC(O)CO (configuration not stated) for me?
RESULT: > 100 µM (inactive)

QUERY: Can you look up the measured GI50 of C=C(C=O)[C@@H]1C2OC(=O)C(=C)[C@@H]2CC(O)[C@@]1(C)CC (some centres not stated) for me?
RESULT: 13.1 µM (inactive)

====

- Test system: NCI/ADR-RES
- method.summary: NCI tumour cell line growth inhibition, 48 h
Active and inactive are the calls of the source. No stated cut-off is given here; in the data, active = GI50 up to about 1.1 µM and inactive = higher.
Below, each entry is listed with its recorded GI50.

QUERY: Can you look up the measured GI50 of Cc1cn(CC2=NCCCN2)c(=O)[nH]c1=O for me?
RESULT: > 100 µM (inactive)

QUERY: Can you look up the measured GI50 of C=CCCC(CCC=C)(C(=O)O)C(=O)O for me?
RESULT: > 100 µM (inactive)

QUERY: Can you look up the measured GI50 of CCOC(=O)C1C(c2ccc(OC)cc2)c2c(nn(-c3ccccc3)c2O)CC1(C)O (stereo not drawn) for me?
RESULT: 42.5 µM (inactive)

QUERY: Can you look up the measured GI50 of CCOC(=O)C(=[N+]=[N-])C(=O)CN1C(=O)C2CC(C)=C(C)CC2C1O (stereo not drawn) for me?
RESULT: > 100 µM (inactive)

QUERY: Can you look up the measured GI50 of Nc1nnc2n1C(=O)C(C1(C3=Nc4nnc(N)n4C3=O)Cc3ccccc3C1=O)=N2 for me?
RESULT: > 100 µM (inactive)
